# key: entry, value: pIC50
test.target: HDAC2 (Homo sapiens, UniProt Q92769)
Construct: NM_001527; Cat. #50002) is full-length with C-terminal his tag; His (C); purchased BPS Biosciences 50002; host or cells: baculovirus infected Sf9 cells
Sequence (Q92769 whole entry): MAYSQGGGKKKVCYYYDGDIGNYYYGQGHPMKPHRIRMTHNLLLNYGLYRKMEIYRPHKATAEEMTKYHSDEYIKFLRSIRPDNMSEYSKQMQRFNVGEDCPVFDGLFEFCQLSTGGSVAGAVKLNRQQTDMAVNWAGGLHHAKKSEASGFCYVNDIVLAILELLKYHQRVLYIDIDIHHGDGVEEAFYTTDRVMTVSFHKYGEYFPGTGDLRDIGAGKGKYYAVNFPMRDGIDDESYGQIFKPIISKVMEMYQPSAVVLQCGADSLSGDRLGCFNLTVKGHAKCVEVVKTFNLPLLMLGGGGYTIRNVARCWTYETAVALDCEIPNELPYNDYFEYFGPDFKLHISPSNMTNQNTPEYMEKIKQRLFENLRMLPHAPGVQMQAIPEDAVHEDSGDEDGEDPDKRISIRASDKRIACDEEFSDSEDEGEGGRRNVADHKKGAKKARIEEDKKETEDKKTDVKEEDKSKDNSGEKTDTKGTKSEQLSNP
method.description: HDAC enzyme activity assay (fluorogenic substrate), HDAC2
Assay type: biochemical
particulars: recombinant enzyme; read-out: HDAC2 inhibition (IC50)
pIC50: −log10 of the molar value.

| compound | pIC50 |
| --- | --- |
| CCCc1nn(C)c2c(=O)[nH]c(-c3cc(C4=CCC(C(=O)NO)CC4)ccc3OCC)nc12 (stereo not shown) | < 5.00 |
| CCCc1nn(C)c2c(=O)[nH]c(-c3cc(S(=O)(=O)NC4CCN(c5ncc(C(=O)NO)cn5)CC4)ccc3OCC)nc12 | 6.00 to 8.00 |
| CCCc1nn(C)c2c(=O)[nH]c(-c3cc(CCC(=O)NO)ccc3OCC)nc12 | < 5.00 |
| CCCc1nn(C)c2c(=O)[nH]c(-c3cc(Cc4ccc(/C=C/C(=O)NO)cc4)ccc3OCC)nc12 | < 5.00 |
| CCCc1nn(C)c2c(=O)[nH]c(-c3cc(N4CCC(C(=O)NO)CC4)ccc3OCC)nc12 | < 5.00 |
| CCCc1nn(C)c2c(=O)[nH]c(-c3cc(C4CC(C(=O)NO)C4)ccc3OCC)nc12 (stereo not shown) [Example 1-85] | 5.00 to 6.00 |
| CCCc1nn(C)c2c(=O)[nH]c(-c3cc(Cc4ccc(C(=O)NO)cc4)ccc3OCC)nc12 | 5.00 to 6.00 |

====

test.target: PDE5A (Homo sapiens)
Construct: they are full-length with N-terminal GST tag; GST (N); purchased BPS Biosciences 60050; host or cells: baculovirus infected Sf9 cells
method.description: PDE enzyme activity assay (HTRF cGMP), PDE5A
Format: biochemical
particulars: recombinant enzyme; read-out: PDE5A1 inhibition (IC50)
pIC50: −log10 of the molar value.

| compound | test.target | pIC50 |
| --- | --- | --- |
| CCCc1nn(C)c2c(=O)[nH]c(-c3cc(S(=O)(=O)N4CCN(CCC(=O)NO)CC4)ccc3OCC)nc12 [Example 1-04] | PDE5A (Homo sapiens) | > 8.00 |
| CCCc1nn(C)c2c(=O)[nH]c(-c3cc(-c4ccc(C(=O)NO)cn4)ccc3OCC)nc12 [Example 1-72] | PDE5A (Homo sapiens) | > 8.00 |
| CCCc1nn(C)c2c(=O)[nH]c(-c3cc(-c4ccc(C(=O)NO)o4)ccc3OCC)nc12 [Example 1-74] | PDE5A (Homo sapiens) | > 8.00 |
| CCCc1nn(C)c2c(=O)[nH]c(-c3cc(S(=O)(=O)N4CCC(CCC(=O)NO)CC4)ccc3OCC)nc12 [Example 1-01] | PDE5A (Homo sapiens) | 6.00 to 8.00 |
| CCCc1nn(C)c2c(=O)[nH]c(-c3cc(-c4ccc(C(=O)NO)s4)ccc3OCC)nc12 [Example 1-71] | PDE5A (Homo sapiens) | > 8.00 |
| CCCc1nc(C)c2c(=O)[nH]c(-c3cc(C4CCC(C(=O)NO)CC4)ccc3OCC)nn12 (racemic) [Example 2-12] | PDE5A (Homo sapiens) | > 8.00 |
| CCCc1nn(C)c2c(=O)[nH]c(-c3cc(CC4CCC(C(=O)NO)C4)ccc3OCC)nc12 (racemic) [Example 1-80] | PDE5A (Homo sapiens) | 6.00 to 8.00 |
| CCCc1nn(C)c2c(=O)[nH]c(-c3cc(OC4CCC(C(=O)NO)CC4)ccc3OCC)nc12 (stereo not drawn) [Example 1-53] | PDE5A (Homo sapiens) | 6.00 to 8.00 |
| CCCc1nn(C)c2c(=O)[nH]c(-c3cc(N4CCC5(CCN(c6ncc(C(=O)NO)cn6)CC5)C4)ccc3OCC)nc12 [Example 1-69] | PDE5A (Homo sapiens) | 6.00 to 8.00 |
| CCCc1nc(C)c2c(=O)[nH]c(-c3cc(S(=O)(=O)Nc4ccc(/C=C/C(=O)NO)cc4)ccc3OCC)nn12 [Example 2-03] | PDE5A (Homo sapiens) | > 8.00 |
| CCCc1nn(C)c2c(=O)[nH]c(-c3cc(Cc4ccc(CC(=O)NO)cc4)ccc3OCC)nc12 [Example 1-18] | PDE5A (Homo sapiens) | 6.00 to 8.00 |
| CCCc1nn(C)c2c(=O)[nH]c(-c3cc(C(O)c4ccc(C(=O)NO)cc4)ccc3OCC)nc12 (stereo not drawn) [Example 1-78] | PDE5A (Homo sapiens) | > 8.00 |
| CCCc1nc(C)c2c(=O)[nH]c(-c3cc(Cc4ccc(C(=O)NO)s4)ccc3OCC)nn12 [Example 2-10] | PDE5A (Homo sapiens) | > 8.00 |
| CCCc1nn(C)c2c(=O)[nH]c(-c3cc(C4CC(C(=O)NO)C4)ccc3OCC)nc12 (stereo not drawn) [Example 1-84] | PDE5A (Homo sapiens) | 6.00 to 8.00 |
| CCCc1nn(C)c2c(=O)[nH]c(-c3cc(CC4CC(C(=O)NO)C4)ccc3OCC)nc12 (stereo not drawn) [Example 1-62] | PDE5A (Homo sapiens) | 6.00 to 8.00 |
